METHOD_SUMMARY: Plasma pharmacokinetics after single oral dose of Δ8-THCV in MCT oil (LC-MS/MS, non-compartmental analysis)
Format: in vivo, human
CONDITION_INFO: 100 mg single oral Δ8-THCV in MCT oil; plasma; Mean (±SD)
Reported tlast (time to last quantifiable concentration) values follow for various compounds
VALUE_TYPE: tlast (time to last quantifiable concentration)

1) CCCc1cc(O)c2c(c1)OC(C)(C)[C@@H]1CC=C(CO)C[C@@H]21 (racemic) [11-OH-Δ8-THCV, (±)-11-hydroxy-Δ8-THCV]
7.6 (±1.2)
2) CCCc1cc(O)c2c(c1)OC(C)(C)[C@@H]1CC=C(C(=O)O)C[C@@H]21
8 (±0)
3) CCCc1cc(O)c2c(c1)OC(C)(C)[C@@H]1CCC(C(=O)O)=C[C@@H]21
8 (±0)
4) CCCc1cc(O)c2c(c1)OC(C)(C)[C@@H]1CC=C(C)C[C@@H]21 [Δ8-THCV, Δ8-tetrahydrocannabivarin]
8 (±0)
5) CCCc1cc(O)c2c(c1)OC(C)(C)[C@@H]1CCC(C)=C[C@@H]21 [Δ9-THCV, Δ9-tetrahydrocannabivarin]
4.8 (±1.5)
6) CCCCCc1cc(O)c2c(c1)OC(C)(C)[C@@H]1CC=C(C(=O)O)CC21 (single isomer, unassigned; (+)) [Δ8-THC-COOH, (+)-11-nor-Δ8-THC-9-carboxylic acid]
5.8 (±1.3)

###

METHOD_SUMMARY: Plasma pharmacokinetics after single oral dose of Δ8-THCV in MCT oil (LC-MS/MS, non-compartmental analysis)
Assay type: in vivo, human
CONDITION_INFO: Predose; 25 mg Δ8-THCV dose; Median (IQ Range)
Reported plasma concentration values follow for various compounds
VALUE_TYPE: plasma concentration

1. CCCc1cc(O)c2c(c1)OC(C)(C)[C@@H]1CCC(C(=O)O)=C[C@@H]21 [Δ9-THCV-COOH, 11-nor-9-carboxy-Δ9-THCV]
0 (0–0) ng/mL
2. CCCCCc1cc(O)c2c(c1)OC(C)(C)[C@@H]1CC=C(C(=O)O)CC21 (single isomer, unassigned; (+)) [Δ8-THC-COOH, (+)-11-nor-Δ8-THC-9-carboxylic acid]
0 (0–0) ng/mL
3. CCCc1cc(O)c2c(c1)OC(C)(C)[C@@H]1CC=C(C(=O)O)C[C@@H]21 [Δ8-THCV-COOH, 11-nor-9-carboxy-Δ8-THCV]
0 (0–0) ng/mL

###

METHOD_SUMMARY: Plasma pharmacokinetics after single oral dose of Δ8-THCV in MCT oil (LC-MS/MS, non-compartmental analysis)
Format: in vivo, human
CONDITION_INFO: human, plasma, po, 200 mg, 200 mg single oral Δ8-THCV in MCT oil; plasma; Median (Range); read-out: MRT (mean residence time)
VALUE_TYPE: MRT (h)

1. CCCc1cc(O)c2c(c1)OC(C)(C)[C@@H]1CC=C(C(=O)O)C[C@@H]21
5.1
2. CCCCCc1cc(O)c2c(c1)OC(C)(C)[C@@H]1CC=C(C(=O)O)CC21 (single isomer, unassigned; (+)) [Δ8-THC-COOH, (+)-11-nor-Δ8-THC-9-carboxylic acid]
5.8
3. CCCc1cc(O)c2c(c1)OC(C)(C)[C@@H]1CCC(C)=C[C@@H]21 [Δ9-THCV, Δ9-tetrahydrocannabivarin]
4.6
